From: ChEMBL document CHEMBL6074675

- protocolSummary: Half life of the compound in human liver microsomes in presence of NADPH by LC-MS/MS analysis
- Assay type: ADME, Microsome
Parameter: half-life. Scope: all listed entries.
propertyLabel: half-life

                           chemicalstructure    reading
 0  CSc1ncccc1C(=O)Nc1nc(-c2ccc3ncccc3c2)cs1     17 min
 1  CSc1ncccc1C(=O)Nc1nc(-c2cccc(-c3ccc(C#N)cn3)c2)cs1     25 min
 2  CSc1ncccc1C(=O)Nc1nc(-c2cccc(Nc3ccc(C#N)c(O)c3)c2)cs1     43 min
 3  CSc1ncccc1C(=O)Nc1nc(-c2cccc(-c3ccc(C#N)c(O)c3)c2)cs1     43 min
 4  CSc1ncccc1C(=O)Nc1nc(-c2cccc(Nc3ccc(C#N)cc3)c2)cs1     23 min
 5  O=C(Nc1nc(-c2ccc3ccccc3c2)cs1)c1cc(F)c(O)c(F)c1    137 min
 6  CSc1ncccc1C(=O)Nc1nc(-c2cccc(-c3ccccc3)c2)cs1     34 min
 7  CSc1ncccc1C(=O)Nc1nc(-c2cc(C(=O)O)cc(-c3ccc(C#N)cc3)c2)cs1  > 300 min
 8  CC(C)(C)c1ncc(C(=O)Nc2nc(-c3ccc4ccccc4c3)cs2)s1     51 min
 9  CCOC(=O)N1CCN(c2cc(-c3ccc(C#N)cc3)cc(-c3csc(NC(=O)c4cccnc4SC)n3)c2)CC1     21 min
10  CSc1ncccc1C(=O)Nc1nc(-c2ccc3ccccc3c2)cs1     35 min
11  CC(C)(C)c1ccc(C(=O)Nc2nc(-c3ccc4ccccc4c3)cs2)cc1     49 min
12  CC(C)(C(=O)O)c1ccc(C(=O)Nc2nc(-c3ccc4ccccc4c3)cs2)cc1    292 min
13  CSc1ncccc1C(=O)Nc1nc(-c2cc(Nc3ccc(C#N)cc3)cc(N3CCOCC3)c2)cs1     15 min
14  CSc1ncccc1C(=O)Nc1nc(-c2cccc(Nc3cccc(C#N)c3)c2)cs1     25 min
15  CSc1ncccc1C(=O)Nc1nc(-c2cccc(Nc3ccc(C#N)c(C(=O)O)c3)c2)cs1    145 min
16  CSc1ncccc1C(=O)Nc1nc(-c2cccc(N3CCNCC3)c2)cs1  > 300 min
17  CSc1ncccc1C(=O)Nc1nc(-c2cccc(Nc3ccc(CN)cc3)c2)cs1     37 min
18  CSc1ncccc1C(=O)Nc1nc(-c2cc(-c3ccc(C#N)cc3)ccc2F)cs1     85 min
19  COc1cc(Nc2cccc(-c3csc(NC(=O)c4cccnc4SC)n3)c2)ccc1C#N     25 min
